Provenance of the data: paper PMC8252180

ASSAY_TEXT: Vero cell viability
Format: cell-based
SETTINGS: African green monkey, Vero cells; test compounds at 100 µg/mL
Attribute: viability at 100 µg/mL
MEASUREMENT_LABEL: viability at 100 µg/mL (%)

COMPOUND | MEASUREMENT_LABEL | UNITS | REPORTED_RESULT
CCCCc1cn(Cc2ccccc2)nn1 | viability at 100 µg/mL | % | 99.3
CCCCCCCCc1cn(Cc2ccc(C(F)(F)F)cc2)nn1 | viability at 100 µg/mL | % | 102
NNC(=O)c1ccncc1 [FJS-INH, isoniazid, reference compound] | viability at 100 µg/mL | % | 98
FC(F)(F)c1ccc(Cn2cc(CSc3ccccc3)nn2)cc1 | viability at 100 µg/mL | % | 103
c1ccc(Cn2cc(CSc3ccccc3)nn2)cc1 | viability at 100 µg/mL | % | 101
CCCCCCCCCCc1cn(Cc2ccc(Br)cc2)nn1 | viability at 100 µg/mL | % | 103
CCCCc1cn(Cc2ccc(C)cc2)nn1 | viability at 100 µg/mL | % | 85.4
CCCCCCCCc1cn(Cc2ccc(C)cc2)nn1 | viability at 100 µg/mL | % | 101
CCCCCCc1cn(Cc2ccc(C)cc2)nn1 | viability at 100 µg/mL | % | 86.1
Brc1ccc(Cn2cc(CSc3ccccc3)nn2)cc1 | viability at 100 µg/mL | % | 103

###

ASSAY_TEXT: Cytotoxicity analysis on HFF cells (CCK-8)
Assay type: cell-based, human
SETTINGS: human, human foreskin fibroblasts (HFF) cells; test compounds at 50 µg/mL

MOLECULE | UNITS | viability at 24 h, 50 µg/mL
c1ccc(Cn2cc(CSc3ccccc3)nn2)cc1 [FJS-205] | % | 100
CCCCCCCCc1cn(Cc2ccc(C(F)(F)F)cc2)nn1 [FJS-403] | % | 103
CCCCCCCCCCc1cn(Cc2ccc(C(F)(F)F)cc2)nn1 [FJS-404] | % | 100
CCCCCCc1cn(Cc2ccc(C)cc2)nn1 [FJS-302] | % | 85
CCCCCCCCCCc1cn(Cc2ccc(Br)cc2)nn1 [FJS-104] | % | 100
Brc1ccc(Cn2cc(CSc3ccccc3)nn2)cc1 [FJS-105] | % | 100
